- EXPERIMENTAL_TARGET: T1, human Trop-2 (on the surface of human cell lines) (human, UniProt P09758 27-323)
- T1 sequence: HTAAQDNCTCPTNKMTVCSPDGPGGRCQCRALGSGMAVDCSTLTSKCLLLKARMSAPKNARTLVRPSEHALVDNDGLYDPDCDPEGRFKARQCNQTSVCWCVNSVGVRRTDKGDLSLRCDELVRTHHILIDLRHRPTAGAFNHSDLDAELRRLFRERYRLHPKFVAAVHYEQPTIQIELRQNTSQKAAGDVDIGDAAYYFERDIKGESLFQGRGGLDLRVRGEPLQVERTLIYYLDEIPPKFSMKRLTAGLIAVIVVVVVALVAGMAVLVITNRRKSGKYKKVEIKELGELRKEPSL
- MEASUREMENT_PROTOCOL: cell-based or functional assay
Label class 1 when ADCC reporter (Jurkat-CD16a v158-NFAT-luciferase), target cell HCC1806, EC50 is at or above 400 pM; anything below gets class 0.

Example entries begin here.
hz-Ab2-1.2 (antibody, human IgG1, kappa, V domains shown, Humanized antibody) VH: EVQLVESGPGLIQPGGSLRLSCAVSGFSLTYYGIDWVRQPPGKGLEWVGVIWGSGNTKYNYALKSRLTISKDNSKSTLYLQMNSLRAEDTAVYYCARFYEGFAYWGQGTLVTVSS VL: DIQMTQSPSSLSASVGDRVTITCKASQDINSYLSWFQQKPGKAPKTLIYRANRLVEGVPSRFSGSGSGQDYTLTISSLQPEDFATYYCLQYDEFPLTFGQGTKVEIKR
class 1
hz-Ab2-1.1 (antibody, human IgG1, kappa, V domains shown, Humanized antibody) VH: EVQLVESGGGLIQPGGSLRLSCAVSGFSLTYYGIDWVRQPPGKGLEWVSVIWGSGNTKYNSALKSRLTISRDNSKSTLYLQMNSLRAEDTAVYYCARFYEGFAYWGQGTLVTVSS VL: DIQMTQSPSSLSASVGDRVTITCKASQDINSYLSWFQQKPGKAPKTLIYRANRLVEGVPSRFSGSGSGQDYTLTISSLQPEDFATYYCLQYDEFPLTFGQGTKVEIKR
class 1
hz-Ab2-2.4 (antibody, human IgG1, kappa, V domains shown, Humanized antibody) VH: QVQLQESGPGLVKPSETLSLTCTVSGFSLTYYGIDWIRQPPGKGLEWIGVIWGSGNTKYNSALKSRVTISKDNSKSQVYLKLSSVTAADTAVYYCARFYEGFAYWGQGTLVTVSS VL: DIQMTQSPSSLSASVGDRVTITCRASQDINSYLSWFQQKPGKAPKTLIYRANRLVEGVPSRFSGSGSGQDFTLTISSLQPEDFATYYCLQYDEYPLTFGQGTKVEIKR
class 1

// query Kindly determine if ADCC reporter (Jurkat-CD16a v158-NFAT-luciferase), target cell HCC1806, EC50 recorded for hz-Ab35-2.3 (antibody, human IgG1, kappa, V domains shown, Humanized antibody) VH: QVQLVQSGAEVKKPGASVKVSCKASGYTFTSSDINWVRQRPGQGLEWMGWIYPRDGSKKYNEKFKGRVTMTVDTSTSTVYMELSSLRSEDTAVYYCATRFATVVSNYGLDPWGQGTLVTVSS VL: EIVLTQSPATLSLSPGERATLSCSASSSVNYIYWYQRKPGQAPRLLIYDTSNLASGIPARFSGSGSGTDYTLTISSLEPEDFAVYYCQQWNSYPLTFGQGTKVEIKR is above or exactly 400 pM.
// result class 0
